Active and inactive are the calls of the source.
Observed Kd values for Protein kinase C alpha type (Homo sapiens, UniProt P17252) are listed in what follows.

Task: # query: Kd | item O=C(Nc1cccc(Cl)c1)Nc1ncc(CCNc2ncnc3ccsc23)s1 [SNS-314] | system: Protein kinase C alpha type (Homo sapiens, UniProt P17252); also: in the data inactive means no Kd found up to 30 µM
Result: > 30 µM (inactive)

Task: # query: Kd | item COc1cc(OC)c(/C=C/S(=O)(=O)Cc2ccc(OC)c(NCC(=O)O)c2)c(OC)c1 [RIGOSERTIB] | system: Protein kinase C alpha type (Homo sapiens, UniProt P17252); also: in the data inactive means no Kd found up to 30 µM
Result: > 30 µM (inactive)

Task: # query: Kd | item C[C@@H]1CN(Cc2ccc(F)cc2)[C@@H](C)CN1C(=O)c1cc2c(C(=O)C(=O)N(C)C)cn(C)c2cc1Cl [TALMAPIMOD] | system: Protein kinase C alpha type (Homo sapiens, UniProt P17252); also: in the data inactive means no Kd found up to 30 µM
Result: > 30 µM (inactive)

Task: # query: Kd | item COCCNCc1ccc(-c2cc3nccc(Oc4ccc(NC(=S)NC(=O)Cc5ccc(F)cc5)cc4F)c3s2)nc1 [GLESATINIB] | system: Protein kinase C alpha type (Homo sapiens, UniProt P17252); also: in the data inactive means no Kd found up to 30 µM
Result: > 30 µM (inactive)

Task: # query: Kd | item CN1CC[C@@H](c2c(O)cc(O)c3c(=O)cc(-c4ccccc4Cl)oc23)[C@@H]1CO | system: Protein kinase C alpha type (Homo sapiens, UniProt P17252); also: in the data inactive means no Kd found up to 30 µM
Result: > 30 µM (inactive)
